Measured values drawn from paper PMC5540273 for this set.

# Tested on: BMPR1A
# Experimental Conditions: concentration: 1 μM, replicates: in singlicate; n = 1;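 also: KINOMEscan kinase panel screen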
Quantity Measured: %Inh (%)
Note: unit % is implicit; provide only the numeric part.

Look over these answered cases.
[Q] Endpoint output: %Inh of NS(=O)(=O)c1cccc(-c2ccc3ncc(N4CCOCC4)nc3c2)c1 . Value?
[A] 0

[Q] Quick one: CCc1nc(-c2cccc(C)c2)c(-c2ccnc(NCc3ccccc3)c2)s1
[A] 0

[Q] Same thing, different molecule: COC(=O)Nc1nc2cc(Oc3ccc(NC(=O)Nc4cc(F)ccc4F)cc3)ccc2[nH]1.Cl
[A] 0

[Q] Another molecule: c1ccc(-c2cc(-c3c[nH]nc3-c3ccccn3)ccn2)cc1
[A] 1

[Q] Now give it for Cc1cn2c(=O)cc(N3CCOCC3)nc2n1Cc1cccc(Cl)c1Cl too.
[A] 19

[Q] Thanks! And Cc1cccc(-c2nc(Nc3ccc4ncsc4c3)c3ccccc3n2)n1 ?
[A] 0

New cases:
[Q] Need %Inh, item O=C(Nc1cccc(-c2nn3ncccc3c2-c2ccnc(Nc3cccc(C(F)(F)F)c3)n2)c1)c1c(F)cccc1F
[A] 0

[Q] Same lookup for COc1ccc(S(=O)(=O)NC2CCN(c3cc(C)nc(Nc4cccc(C#N)c4)n3)CC2)cc1.O=C(O)C(F)(F)F , please.
[A] 0

[Q] Entry to check: Cc1cccc(-c2nc(-c3ccc(S(C)(=O)=O)cc3)sc2-c2ccncc2)c1
[A] 0

[Q] Request: Cl.Oc1cccc(Nc2ccnc3cc(-c4ccncc4)ccc23)c1
[A] 84

---

# System: EIF2AK1
# Experimental Conditions: concentration: 1 μM, replicates: in singlicate; n = 1
Quantity Measured: %Inh
Quote the value and follow it with the unit of measurement.

Sample records with %Inh:
[Q] // lookup %Inh for Cc1cccc(-c2nc(-c3ccc(S(C)(=O)=O)cc3)sc2-c2ccncc2)c1
[A] 1%

[Q] What do you get for Cc1c(Cn2c(C)nn3c(=O)cc(N4CCOC(C)C4)nc23)cccc1C(F)(F)F (stereo not drawn) [GSK2344444] ?
[A] 0%

[Q] Quick one: C[C@@H](Oc1cc(-n2cnc3ccc(NC(=O)NC(C)(C)C)cc32)sc1C(N)=O)c1ccccc1Cl [GSK346294]
[A] 0%

[Q] What about COc1ccc(Nc2nccc(N3CCC(NC(=O)Nc4cccc(C(C)=O)c4)C3)n2)cc1 (stereo not drawn) [GSK1379731] ?
[A] 0%

[Q] What would you report for CN1c2ccc(NCc3ccc(F)cc3)cc2-c2c(cnn2C)S1(=O)=O ?
[A] 0%

Attention now turns to another entry.
[Q] Reported %Inh, molecule Cl.Oc1cccc(Nc2ccnc3cc(-c4ccncc4)ccc23)c1 [GW494601] : ____
[A] 0%

---

# Test system: NEK4
# Experimental Conditions: concentration: 1 μM, replicates: in singlicate; n = 1
Below, each entry is listed with its recorded %Inh.
Respond numerically; units are % and should not be typed.

Some molecules with recorded %Inh:
[Q] Which measured %Inh value corresponds to Cc1cccc(-c2nc(Nc3ccc4ncsc4c3)c3ccccc3n2)n1 ?
[A] 0

[Q] Now give it for N#Cc1c(N2CCOCC2)sc(-c2ccn[nH]2)c1-c1ccc(Cl)cc1 too.
[A] 0

We next turn to a different molecule, shown below.
[Q] So what does the record say about %Inh for COc1cc(Nc2nccc(N3CCC(NC(=O)c4cccc(NC(C)=O)c4)C3)n2)cc(OC)c1OC (stereo not drawn) ?
[A] 24

---

# System: AURKC
# Experimental Conditions: concentration: 1 μM, replicates: in singlicate; n = 1
Recorded %Inh for the following compounds
Use % as the unit, but write only the number.

[Q] Could you tell me which %Inh is on file for O=C(Nc1n[nH]c2cc(-c3cccc(F)c3)ccc12)C1CC1 ?
[A] 35

Further cases:
[Q] Recorded %Inh for COc1ccc(Nc2ncc(C#N)c(Nc3ccccc3C(N)=O)n2)cc1N1CCN(C)CC1.Cl , please?
[A] 100

[Q] Same read-out for O=c1cc(N2CCOCC2)nc2n(Cc3cccc(Cl)c3Cl)c(C3CC3)nn12 ?
[A] 0

[Q] Moving on to Cc1nnc(-c2ccc(C)c(-c3ccc(C(=O)Nc4ccc(NS(C)(=O)=O)cc4)cc3)c2)o1
[A] 3

[Q] Same lookup for Cc1ccc(C(=O)NCC(N)=O)cc1-n1c(C)cc(OCc2ccc(F)cc2F)c(Br)c1=O , please.
[A] 8

---

# Test system: HIPK4
# Experimental Conditions: concentration: 1 μM, replicates: in singlicate; n = 1
Reported %Inh by item:
Numeric answer only, unit % assumed.

[Q] Using the record for COc1cc(Nc2nccc(N3CCC(NC(=O)c4cccc(NC(C)=O)c4)C3)n2)cc(OC)c1OC (stereo not drawn) , report its %Inh.
[A] 0

[Q] Continue with c1ccc(-c2cc(-c3c[nH]nc3-c3ccccn3)ccn2)cc1
[A] 6

[Q] Another molecule to check: Cc1ccc(C(=O)NCC(N)=O)cc1-n1c(C)cc(OCc2ccc(F)cc2F)c(Br)c1=O
[A] 0

[Q] Can you handle O=c1cc(N2CCOCC2)nc2n(Cc3cccc4ccccc34)ccn12 next?
[A] 5

[Q] Also, Nc1nccc(-c2c(-c3ccc(F)cc3)ncn2C2CCN(CC(F)(F)F)CC2)n1 please.
[A] 0

[Q] Same read-out for Cn1ccc2ncnc(Oc3ccc(NC(=O)Nc4ccncc4)c(Cl)c3)c21 ?
[A] 0

[Q] Then this molecule: Cc1cccc(-c2nc(Nc3ccc4ncsc4c3)c3ccccc3n2)n1
[A] 6

[Q] Then what about the molecule COc1ccc(Nc2nccc(N3CCC(NC(=O)Nc4cccc(C(C)=O)c4)C3)n2)cc1 (stereo not drawn) ?
[A] 0

[Q] Ok, now COCCNC(=O)c1ccc(-c2cc(C(=O)NC3CC3)cc(F)c2C)cc1
[A] 17

---

# Test system: TESK1
# Experimental Conditions: concentration: 1 μM, replicates: in singlicate; n = 1
Quantity Measured: %Inh (%)
Reply with just the number (in %).

[Q] Given the entry Cc1c(Cn2c(C)nn3c(=O)cc(N4CCOC(C)C4)nc23)cccc1C(F)(F)F (stereo not shown) [GSK2344444] , report its measured %Inh.
[A] 0

[Q] Fc1ccc(-c2ncn(CCCN3CCOCC3)c2-c2ccccn2)cc1 [SB-211742] , same question.
[A] 0

[Q] Next entry: NS(=O)(=O)CCc1cccc(Nc2nccc(-c3c(-c4cccc(NC(=O)c5c(F)cccc5F)c4)nn4ccccc34)n2)c1 [GSK336735]
[A] 50

Others:
[Q] Which %Inh value belongs to O=c1cc(N2CCOCC2)nc2n(Cc3cccc(C(F)(F)F)c3)ccn12 [GSK2297543] ?
[A] 18

[Q] // same read-out, input: O=C1Cc2cc(Nc3nc(NCc4cccc(S(=O)(=O)C(F)(F)F)c4)ncc3C(F)(F)F)ccc2N1
[A] 0

[Q] Further, for O=c1cc(N2CCOCC2)nc2n(Cc3cccc4ccccc34)ccn12 [GSK2333389] ?
[A] 0

---

# Test system: MYO3A
# Experimental Conditions: concentration: 1 μM, replicates: in singlicate; n = 1
Quantity Measured: %Inh (%)
Write it as a number; the unit % goes unstated.

[Q] Quick check: %Inh of N#Cc1c(N2CCOCC2)sc(-c2ccn[nH]2)c1-c1ccc(Cl)cc1 ?
[A] 3

Here's the next entry for you.
[Q] What %Inh value was documented for this compound, CCc1ccnc(/C=C/c2n[nH]c3cc(Sc4ccccc4C(=O)NC)ccc23)c1 ?
[A] 0

---

# System: ACVR1
# Experimental Conditions: concentration: 1 μM, replicates: in singlicate; n = 1
// Criterion not met strictly below 7% in %Inh; Criterion met otherwise

[Q] Does the compound COc1ccc(CNC(=O)NC2CCN(c3ccnc(Nc4ccc(OC)cc4)n3)C2)cc1 (centres unmarked) [GSK1379727] have recorded %Inh that is 7% or more?
[A] Criterion not met

[Q] Quick one: Cc1nnc(-c2ccc3occ(-c4ccc(C(C)O)cc4)c3c2)o1 (centres unmarked)
[A] Criterion met

[Q] Record: Cc1cccc(-c2nc(Nc3ccc4ncsc4c3)c3ccccc3n2)n1 [GW867588]
[A] Criterion met

[Q] And then O=c1cc(N2CCOCC2)nc2n(Cc3cccc4ccccc34)ccn12 [GSK2333389] , what is it?
[A] Criterion not met

New cases:
[Q] Can Nc1nc(-c2ccc3c(N)n[nH]c3c2)cc(N2CCCC2)n1 [GSK2227430] be said to have %Inh at or above 7%?
[A] Criterion not met

[Q] Try the compound Cc1cccc(Cn2ccn3c(=O)cc(N4CCOCC4)nc23)c1 [GSK2297542]
[A] Criterion not met

[Q] Ok, now Cc1ccc(NC(=O)c2ccnc(N3CCN(C)CC3)c2)cc1-c1ccc(C(=O)NCC2CC2)cc1 [GW775604]
[A] Criterion not met

[Q] What do you get for O=C(Nc1n[nH]c2cc(-c3cccc(F)c3)ccc12)C1CC1 [SB-735464] ?
[A] Criterion met

[Q] Consider next the compound O=C(NCCNc1ccnc(Nc2ccc(F)cc2)n1)c1cc2ccccc2s1 [GSK1379874] in the same way.
[A] Criterion met

[Q] Now the same for O=C1Cc2cc(Nc3nc(NCc4cccc(S(=O)(=O)C(F)(F)F)c4)ncc3C(F)(F)F)ccc2N1
[A] Criterion not met
